Reported EC50 values for the following compounds.
molecular target: UniProt Q14145; assay: HEK293 ARE luciferase assay; conditions: HEK-293 ARE firefly luciferase transiently transfected cells; 18 h incubation; mean of 1 to 20 individual measurements

compound | EC50 [µM]
COC1(c2ncc(F)cc2-c2cn(C)nc2C)C=C(C#N)C(=O)C(C)(C)C1 (stereo not shown) [Compound 172] | 0.008
COC1(c2ncc(F)cc2-c2sc(C)nc2C)C=C(C#N)C(=O)C(C)(C)C1 (stereo not shown) [Compound 195] | 1.3
COC1(c2cccc(-c3c(C)noc3C)n2)C=C(C#N)C(=O)C2(CC2)C1 (stereo not shown) [Compound 130] | 0.153
CO[C@]1(c2ncccc2C(F)F)C=C(C#N)C(=O)C2(CC2)C1 [Compound 55] | 0.014
CCOC1(c2ncccc2C(F)(F)F)C=C(C#N)C(=O)C(C)(C)C1 (stereo not shown) [Compound 143] | 0.139
COC1(c2ncc(F)cc2OC(F)F)C=C(C#N)C(=O)C2(CC2)C1 (stereo not shown) [Compound 160] | 0.02
COC1(c2ncc(F)cc2-c2cnn(C)c2C)C=C(C#N)C(=O)C(C)(C)C1 (stereo not shown) [Compound 164] | 0.028
COC1(c2cccc(-c3ccnn3C)n2)C=C(C#N)C(=O)C2(CC2)C1 (single isomer, unassigned) [Compound 53] | 0.133
COC1(c2ncc(F)cc2-c2c(C)nn(C)c2C)C=C(C#N)C(=O)C(C)(C)C1 (stereo not shown) [Compound 187] | 0.077
COC1(c2ncc(F)cc2-c2cncc(C(C)(C)C#N)c2)C=C(C#N)C(=O)C(C)(C)C1 (single isomer, unassigned) [Compound 222] | 0.006
COC1(c2ccc(-c3cnn(C)c3)cn2)C=C(C#N)C(=O)C(C)(C)C1 (stereo not shown) [Compound 115] | 0.106
COC1(c2ccc(C(F)(F)F)cn2)C=C(C#N)C(=O)C(C)(C)C1 (stereo not shown) [Compound 3] | 0.424
COC1(c2ncc(C(F)(F)F)cn2)C=C(C#N)C(=O)C(C)(C)C1 (single isomer, unassigned) [Compound 211] | 0.004
COC1(c2nc(C)c(Br)s2)C=C(C#N)C(=O)C(C)(C)C1 (single isomer, unassigned) [Compound 98] | 0.079
COC1(c2nc(C)c(-c3ccccn3)s2)C=C(C#N)C(=O)C(C)(C)C1 (stereo not shown) [Compound 155] | 0.161
COC1(c2ncc(F)cc2-c2c(C)nn(C)c2C)C=C(C#N)C(=O)C(C)(C)C1 (single isomer, unassigned) [Compound 92] | 0.067

====

biological target: Keap1 (Homo sapiens (Human), UniProt Q14145); test: HEK293 ARE luciferase assay; settings: HEK-293 ARE firefly luciferase transiently transfected cells; 18 h incubation; mean of 1 to 20 individual measurements
Sequence (Q14145 whole entry): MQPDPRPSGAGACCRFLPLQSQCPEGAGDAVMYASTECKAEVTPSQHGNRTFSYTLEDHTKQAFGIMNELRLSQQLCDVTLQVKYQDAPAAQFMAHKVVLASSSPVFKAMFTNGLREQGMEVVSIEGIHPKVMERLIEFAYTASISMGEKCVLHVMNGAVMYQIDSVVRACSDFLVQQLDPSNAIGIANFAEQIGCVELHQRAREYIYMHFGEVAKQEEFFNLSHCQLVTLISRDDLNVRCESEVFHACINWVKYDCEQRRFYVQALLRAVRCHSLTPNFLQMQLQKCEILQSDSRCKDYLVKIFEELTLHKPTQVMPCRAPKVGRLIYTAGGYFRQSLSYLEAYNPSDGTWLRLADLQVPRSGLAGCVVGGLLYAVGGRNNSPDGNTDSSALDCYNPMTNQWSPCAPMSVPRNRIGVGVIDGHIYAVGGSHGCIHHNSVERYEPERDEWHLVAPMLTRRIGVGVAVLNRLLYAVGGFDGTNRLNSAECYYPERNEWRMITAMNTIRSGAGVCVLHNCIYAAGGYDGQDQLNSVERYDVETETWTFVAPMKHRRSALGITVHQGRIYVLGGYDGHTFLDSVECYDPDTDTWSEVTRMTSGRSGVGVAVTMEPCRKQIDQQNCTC
Reported EC50 values for the following compounds.

compound | measurement_unit | EC50
COC1(c2ncccc2-c2ccccc2)C=C(C#N)C(=O)C(C)(C)C1 (stereo not shown) [Compound 7] | nM | 82
CCn1cc(-c2cc(F)cnc2C2(OC)C=C(C#N)C(=O)C(C)(C)C2)cn1 (single isomer, unassigned) [Compound 86] | nM | 9
COC1(c2cccnc2-c2cnn(C)c2)C=C(C#N)C(=O)C(C)(C)C1 (stereo not shown) [Compound 25] | nM | 70
COC1(c2ncc(F)cc2-c2ccc3nccn3c2)C=C(C#N)C(=O)C(C)(C)C1 (single isomer, unassigned) [Compound 226] | nM | 13
